Attribute: chromatographic logP
testDetails: log P by HPLC (OECD Guideline 117), method [a] acidic range pH 2.7
Format: physicochemical
conditionInfo: reversed-phase (RP) C18 HPLC column
measuredProperty: chromatographic logP

>>> observed("Cc1cc(F)c(Nc2ccc3nc(-c4cccnc4)sc3c2)cc1SCC(F)(F)F")
4.18
>>> observed("CN(C(=O)c1cccc(SC(F)(F)F)c1)c1ccc2nc(-c3cncc(F)c3)sc2c1")
3.88
>>> observed("Cn1c(=O)cnn(-c2ccc3nc(-c4cccnc4)sc3c2)c1=O")
1.79
>>> observed("CSCc1nn(-c2ccc3nc(-c4cccnc4)sc3c2)c(=O)n1C")
2.23
>>> observed("Cc1cc(C)c([S+]([O-])CC(F)(F)F)cc1-c1ccc2nc(-c3cccnc3)sc2c1 (stereo not drawn)")
3.45
>>> observed("Clc1cccc(-c2ccc3nc(-c4cccnc4)sc3c2)c1")
4.32
>>> observed("CSCCNC(=O)c1ccc2nc(-c3cccnc3)sc2c1")
1.83
>>> observed("Cc1cc(C)c(-c2ccc3nc(-c4cccnc4)sc3c2)cc1SCC(F)(F)F")
5.22
>>> observed("O=C(Nc1cccc(SC(F)(F)F)c1)c1ccc2nc(-c3cncc(F)c3)sc2c1")
4.29

* * *

System: Myzus persicae
testDetails: Myzus persicae spray test
Type: in vivo
conditionInfo: application rate 500 g/ha, Chinese cabbage leaf discs, after 6 days
Listing of recorded efficacy (aphids killed) by entry.
measuredProperty: efficacy (aphids killed) (%)

>>> observed("CSCCC(=O)N(C)c1ccc2nc(-c3cncc(F)c3)sc2c1")
100
>>> observed("CNC(=O)c1ccc2nc(-c3cccnc3)sc2c1")
100
>>> observed("Cn1c(=O)n(C)n(-c2ccc3nc(-c4cccnc4)sc3c2)c1=O")
100
>>> observed("FC(F)(F)c1cnn(-c2ccc3nc(-c4cccnc4)sc3c2)c1")
90
>>> observed("Cc1nn(-c2ccc3nc(-c4cccnc4)sc3c2)c(=S)n1C")
90
>>> observed("O=C(NCC(F)(F)F)c1ccc2nc(-c3cncc(F)c3)sc2c1")
90
>>> observed("Cc1ccccc1-c1ccc2nc(-c3cccnc3)sc2c1")
100
>>> observed("Cn1cnn(-c2ccc3nc(-c4cccnc4)sc3c2)c1=S")
90
>>> observed("CN(C(=O)C1CCS(=O)(=O)C1)c1ccc2nc(-c3cccnc3)sc2c1 (stereo not drawn)")
90

* * *

testDetails: log P by HPLC (OECD Guideline 117), method [b] neutral range pH 7.8
Type: physicochemical
measuredProperty: logP[b]

>>> observed("c1cncc(-c2nc3ccc(-n4cccn4)cc3s2)c1")
2.2
>>> observed("c1cncc(-c2nc3ccc(NCC4CC4)cc3s2)c1")
2.94
>>> observed("Cc1nn(-c2ccc3nc(-c4cccnc4)sc3c2)c(=O)n1C")
1.81
>>> observed("CC[S+]([O-])c1ccccc1Nc1ccc2nc(-c3cccnc3)sc2c1 (stereo not shown)")
2.24
>>> observed("Cn1cncc(-c2ccc3nc(-c4cccnc4)sc3c2)c1=O")
1.51
>>> observed("c1ccc(CNc2ccc3nc(-c4cccnc4)sc3c2)cc1")
3.12
>>> observed("Cn1ccc(-c2ccc3nc(-c4cccnc4)sc3c2)n1")
2.03
>>> observed("Cc1ccc(-c2ccc3nc(-c4cccnc4)sc3c2)cc1")
4.43
>>> observed("Cn1c(=O)n(C)n(-c2ccc3nc(-c4cccnc4)sc3c2)c1=O")
1.63
>>> observed("Cc1ccccc1-c1ccc2nc(-c3cccnc3)sc2c1")
4.24

* * *

testDetails: log P by HPLC (OECD Guideline 117), method [b] neutral range pH 7.8
Type: physicochemical
conditionInfo: reversed-phase (RP) C18 HPLC column
Mark Y for reported chromatographic logP of 4 or greater; mark N for anything smaller.

>>> assignedlabel("Ic1ccc2nc(-c3cccnc3)sc2c1 [I-a-2]")
"N"
>>> assignedlabel("CC1(C)OB(c2ccc3nc(-c4cccnc4)sc3c2)OC1(C)C [I-h-1]")
"Y"
>>> assignedlabel("Cc1cc(C)c([S+]([O-])CC(F)(F)F)cc1-c1ccc2nc(-c3cccnc3)sc2c1 (stereo not drawn) [compound 10]")
"N"
>>> assignedlabel("Cc1cccc(-c2ccc3nc(-c4cccnc4)sc3c2)c1 [compound 3]")
"Y"
>>> assignedlabel("C[S+]([O-])Cn1cc(-c2ccc3nc(-c4cccnc4)sc3c2)cn1 (stereo not drawn) [compound 39]")
"N"
>>> assignedlabel("CSCc1nn(-c2ccc3nc(-c4cccnc4)sc3c2)c(=O)n1C [compound 55]")
"N"
>>> assignedlabel("Cc1cc(C)c(-c2ccc3nc(-c4cccnc4)sc3c2)cc1SCC(F)(F)F [compound 9]")
"Y"
>>> assignedlabel("c1ccc(Nc2ccc3nc(-c4cccnc4)sc3c2)nc1 [compound 24]")
"N"
>>> assignedlabel("Cc1cc(F)c(Nc2ccc3nc(-c4cccnc4)sc3c2)cc1SCC(F)(F)F [compound 20]")
"Y"

* * *

testDetails: log P by HPLC (OECD Guideline 117), method [b] neutral range pH 7.8
Type: physicochemical
conditionInfo: reversed-phase (RP) C18 HPLC column
This section presents compounds with their documented chromatographic logP values.
measuredProperty: chromatographic logP

>>> observed("c1cncc(-c2nc3ccc(-n4cncn4)cc3s2)c1 [compound 31]")
1.63
>>> observed("c1cnc(-c2ccn(-c3ccc4nc(-c5cccnc5)sc4c3)n2)nc1 [compound 30]")
2
>>> observed("Cc1cc(F)c(Nc2ccc3nc(-c4cccnc4)sc3c2)cc1[S+]([O-])CC(F)(F)F (centres unmarked) [compound 21]")
2.9
>>> observed("c1cncc(-c2nc3ccc(N4CCOCC4)cc3s2)c1 [compound 15]")
2.14
>>> observed("Clc1cccc(-c2ccc3nc(-c4cccnc4)sc3c2)c1 [compound 7]")
4.49

* * *

testDetails: log P by HPLC (OECD Guideline 117), method [a] acidic range pH 2.7
Format: physicochemical
conditionInfo: reversed-phase (RP) C18 HPLC column
measuredProperty: chromatographic logP

>>> observed("C[S+]([O-])Cn1cc(-c2ccc3nc(-c4cccnc4)sc3c2)cn1 (stereo not drawn)")
1.32
>>> observed("CSCn1cc(-c2ccc3nc(-c4cccnc4)sc3c2)cn1")
2.4
>>> observed("c1cncc(-c2nc3ccc(N4CCOCC4)cc3s2)c1")
2
>>> observed("CCC(=O)N(C)c1ccc2nc(-c3cccnc3)sc2c1")
1.84
>>> observed("CC1(C)OB(c2ccc3nc(-c4cccnc4)sc3c2)OC1(C)C")
4.03
>>> observed("Cc1cc(C)c(SCC(F)(F)F)cc1Nc1ccc2nc(-c3cccnc3)sc2c1")
4.45
>>> observed("O=C(Nc1cccc([S+]([O-])C(F)(F)F)c1)c1ccc2nc(-c3cncc(F)c3)sc2c1 (stereo not drawn)")
3.26
>>> observed("CS(=O)(=O)CCNC(=O)c1ccc2nc(-c3cccnc3)sc2c1")
1.19
>>> observed("Cc1cc(F)c(-c2ccc3nc(-c4cccnc4)sc3c2)cc1[S+]([O-])CC(F)(F)F (stereo not drawn)")
3.33

* * *

testDetails: log P by HPLC (OECD Guideline 117), method [a] acidic range pH 2.7
Type: physicochemical
Checkbox rule: logP[a] lower than 2 = y; logP[a] not lower than 2 = n.

>>> assignedlabel("Cn1cncc(-c2ccc3nc(-c4cccnc4)sc3c2)c1=O")
"y"
>>> assignedlabel("CON(C)C(=O)c1ccc2nc(-c3cncc(F)c3)sc2c1")
"n"
>>> assignedlabel("CNC(=O)c1ccc2nc(-c3cccnc3)sc2c1")
"y"
>>> assignedlabel("Cn1c(OCC(F)(F)F)nn(-c2ccc3nc(-c4cccnc4)sc3c2)c1=O")
"n"
>>> assignedlabel("Cc1nn(-c2ccc3nc(-c4cccnc4)sc3c2)c(=O)n1C")
"y"
>>> assignedlabel("Clc1ccc(-c2ccc3nc(-c4cccnc4)sc3c2)cc1")
"n"
>>> assignedlabel("CSCCC(=O)N(C)c1ccc2nc(-c3cccnc3)sc2c1")
"n"
>>> assignedlabel("CCSc1ccccc1Nc1ccc2nc(-c3cccnc3)sc2c1")
"n"
>>> assignedlabel("CCN(C)C(=O)c1ccc2nc(-c3cncc(F)c3)sc2c1")
"n"
>>> assignedlabel("CNC(=O)c1ccc2nc(-c3cncc(F)c3)sc2c1")
"y"
>>> assignedlabel("Cc1ccc(-c2ccc3nc(-c4cccnc4)sc3c2)cc1")
"n"
>>> assignedlabel("CSCCC(=O)N(C)c1ccc2nc(-c3cncc(F)c3)sc2c1")
"n"
>>> assignedlabel("Cn1c(=O)n(C)n(-c2ccc3nc(-c4cccnc4)sc3c2)c1=O")
"y"
>>> assignedlabel("CSc1nn(-c2ccc3nc(-c4cccnc4)sc3c2)c(=O)n1C")
"n"
>>> assignedlabel("CSCCNC(=O)c1ccc2nc(-c3cncc(F)c3)sc2c1")
"n"
>>> assignedlabel("CN(C(=O)C1CCS(=O)(=O)C1)c1ccc2nc(-c3cncc(F)c3)sc2c1 (stereo not shown)")
"y"

* * *

testDetails: log P by HPLC (OECD Guideline 117), method [a] acidic range pH 2.7
Format: physicochemical
measuredProperty: logP[a]

>>> observed("Cc1cnn(-c2ccc3nc(-c4cccnc4)sc3c2)c1")
2.62
>>> observed("CS(=O)(=O)CCC(=O)Nc1ccc2nc(-c3cccnc3)sc2c1")
1.22
>>> observed("Cc1ccccc1-c1ccc2nc(-c3cccnc3)sc2c1")
4.08
>>> observed("c1ccc(CNc2ccc3nc(-c4cccnc4)sc3c2)cc1")
2.91
>>> observed("Cn1ccc(-c2ccc3nc(-c4cccnc4)sc3c2)n1")
2.05
>>> observed("O=C(NCC(F)(F)F)c1ccc2nc(-c3cncc(F)c3)sc2c1")
2.51
>>> observed("O=C(Nc1cccc(SC(F)(F)F)c1)c1ccc2nc(-c3cccnc3)sc2c1")
3.76

Just for reference, patent US20170325459A1 is where these values come from.
